- Test system: A498
- assay-comment: NCI tumour cell line growth inhibition, 48 h
Calls of active or inactive are those of the source. Cut-off read from the data, not from the text of the source: active = GI50 up to about 1.1 µM and inactive = higher.
Labels: true (active), false (inactive)

{"compound": "COc1ccc(C(Nc2ccccn2)c2cc(C(C)(C)C)cc(C(C)(C)C)c2O)cc1 (centres undefined)", "cat": "false"}
{"compound": "CC(=O)C1=C(C)N2C(=NC3=C(CCc4ccccc43)C2c2ccc(F)cc2)S1 (centres undefined)", "cat": "false"}
{"compound": "Cc1sc(N/N=C2\\C(=O)Nc3ccccc32)nc1-c1ccccc1", "cat": "false"}
{"compound": "CCOP(=O)(Nc1ccc2oc(=O)c3ccccc3c2c1)OCC", "cat": "false"}
{"compound": "Cc1c2oc3c(C)cc(F)c(C(=O)NC4C(=O)NC(C(C)C)C(=O)N5CCCC5C(=O)N(C)CC(=O)N(C)C(C(C)C)C(=O)OC4C)c3nc-2c(C(=O)NC2C(=O)NC(C(C)C)C(=O)N3CCCC3C(=O)N(C)CC(=O)N(C)C(C(C)C)C(=O)OC2C)c(N)c1=O (centres undefined)", "cat": "true"}
{"compound": "CC(CC(=O)O)C(C(=O)O)C(=O)O (centres undefined)", "cat": "false"}
{"compound": "C=C1CC(OC)(C(O)C(=O)N[C@H]2OCO[C@H]3C2O[C@H](C[C@@H](CO)OC)C(C)(C)C3OC)O[C@H](C)[C@@H]1C (some centres undefined)", "cat": "true"}
{"compound": "C/C=C/C=C/C1=NN(c2cccc(S(=O)(=O)O)c2)C2(C1)SCC(=O)N2c1nc2ccccc2s1 (centres undefined)", "cat": "false"}
{"compound": "C=CCNC(=O)ON1C(=O)CCC1=O", "cat": "false"}
{"compound": "C=C(C)[C@@H]1CCC2=C[C@H](OC2=O)[C@@]2(C)C[C@@H]2C2=CC(C)=C(O2)[C@H]1O", "cat": "false"}
{"compound": "COc1ccc2c(c1)CC[C@@H]1[C@@H]2CC[C@]2(C)C(=O)/C(=C/c3ccncc3)C[C@@H]12", "cat": "false"}
{"compound": "CCOc1ccc2[nH]c3c(C)c4ccncc4c(C)c3c2c1", "cat": "false"}
{"compound": "CCSC(SCC)c1cc2c(cc1Br)OCO2", "cat": "false"}
{"compound": "COC1OC(Cc2nnc(C)o2)C(OCc2ccccc2)C(OCc2ccccc2)C1OCc1ccccc1 (centres undefined)", "cat": "false"}
{"compound": "COc1ccc2cc(CNCCCCCCNC(=O)Nc3cccc4ccccc34)ccc2c1", "cat": "false"}
{"compound": "O=C(CCc1n[nH]c(=S)o1)Nc1cc(Cl)ccc1Cl", "cat": "false"}
{"compound": "COc1ccc(/C(=N/OCCCC(=O)O)c2cccs2)cc1", "cat": "false"}
{"compound": "CC1(C)CC(=O)C2=C(C1)NC1=C(C(=O)CC(C)(C)C1)C2c1ccc([N+](=O)[O-])cc1", "cat": "false"}
{"compound": "CCN(CC)C(=O)c1c(Cl)cc(N(CC)CC)oc1=O", "cat": "false"}

* * *

- Tested on: M19-MEL
- assay-comment: NCI tumour cell line growth inhibition, 48 h
Activity calls are given as the source filed them. No stated cut-off is given here; in the data, active = GI50 up to about 1.1 µM and inactive = higher.
experimental-readout: GI50

{"molecule": "CCOc1ccc(C2=NN(CC)C(=O)C(C3C(=O)N(c4ccccc4)N=C3C)C2)cc1 (stereo not given)", "observed": "> 100 µM (inactive)"}
{"molecule": "CCN(CC)c1c(C)c(C(=O)OC)nn1-c1ccccc1", "observed": "> 66.2 µM (inactive)"}
{"molecule": "CCSC(SCC)c1cc2c(cc1Br)OCO2", "observed": "19.1 µM (inactive)"}
{"molecule": "COc1cc(/C=C2/C(=O)N(C(=O)OCc3ccccc3)C(Cc3cc(OC)c(OC)c(C)c3OC)C(=O)N2Cc2ccccc2)c(OC)c(C)c1OC (stereo not given)", "observed": "69.7 µM (inactive)"}
{"molecule": "CCOc1ccc2[nH]c3c(C)c4ccncc4c(C)c3c2c1", "observed": "1.51 µM (inactive)"}

* * *

Form field: GI50 (one value per entry).
- Test system: SNB-19
- assay-comment: NCI tumour cell line growth inhibition, 48 h
Activity calls are given as the source filed them. Cut-off read from the data, not from the text of the source: active = GI50 up to about 1.1 µM and inactive = higher.
experimental-readout: GI50

{"compound": "COC(=O)C1=C(c2cc(OC)c(OC)c(OC)c2)OC(c2ccc3c(c2)OCO3)C1 (centres undefined)", "observed": "42.5 µM (inactive)"}
{"compound": "CC(=O)C1C(=O)C(=O)N(c2ccc(Br)cc2)C1=O (centres undefined)", "observed": "> 100 µM (inactive)"}
{"compound": "CCSC(SCC)c1cc2c(cc1Br)OCO2", "observed": "58.9 µM (inactive)"}
{"compound": "COc1cc2c(c(OC)c1OC)-c1[nH]ncc1CC2", "observed": "> 100 µM (inactive)"}
{"compound": "COc1cc(O)c2c(c1)C(=O)c1cc3c(c(O)c1C2=O)C(OC1OC(C)C(OC)C(O)C1OC)C(OC)C(C)(O)C3=O (centres undefined)", "observed": "6.53 µM (inactive)"}
{"compound": "O=C(O)/C(Cl)=C(\\Cl)C(=O)NC1C2CC3CC(C2)CC1C3 (centres undefined)", "observed": "> 100 µM (inactive)"}
{"compound": "CCCNC(C#N)c1ccc(OCCCCCCCCCCOc2ccc(C(C#N)NCCC)cc2)cc1 (centres undefined)", "observed": "33.2 µM (inactive)"}
{"compound": "CC(=O)NC1CC(C(C)(C)NC(C)=O)CC=C1C (centres undefined)", "observed": "> 100 µM (inactive)"}
{"compound": "COC(=O)c1ccc(NCc2c(O)ccc(O)c2Br)cc1Cl", "observed": "25.9 µM (inactive)"}
{"compound": "CC1(CCc2ccccc2)CC1(Br)Br (centres undefined)", "observed": "> 100 µM (inactive)"}
{"compound": "C1CCNCC1.S=C(S)N1CCCCC1", "observed": "149 µM (inactive)"}
{"compound": "CC(C)(C)OC(=O)N(O)[C@@H]1CC[C@H](n2cnc3c(N)ncnc32)C1", "observed": "> 100 µM (inactive)"}
{"compound": "CCOP(=O)(Nc1ccc2oc(=O)c3ccccc3c2c1)OCC", "observed": "84.1 µM (inactive)"}
{"compound": "O=c1[nH]c(=O)n(C/C=C/CO)nc1Br", "observed": "> 100 µM (inactive)"}
{"compound": "c1ccc(CNCCN2CCNCC2)nc1", "observed": "> 100 µM (inactive)"}
{"compound": "COc1cc(Nc2nnc3n2S(=O)(=O)c2cc(C)c(Cl)cc2S3)cc(OC)c1", "observed": "13.3 µM (inactive)"}
{"compound": "COC(=O)C(CCC(=O)CCl)N1C(=O)c2ccccc2C1=O (centres undefined)", "observed": "18.7 µM (inactive)"}
{"compound": "CCO/N=C(/CC)c1ccc(Br)s1", "observed": "> 100 µM (inactive)"}
{"compound": "Cc1cc2nc3c(C)c4ccccc4c(C)n3c2cc1C", "observed": "4.02 µM (inactive)"}
{"compound": "CC(=O)O[C@H]1[C@@H](OC(C)=O)C(C)(C)/C=C/[C@H](C)C(=O)[C@@]2(OC(C)=O)C[C@@](C)(OC(C)=O)[C@H](OC(C)=O)[C@@H]2[C@H]2OC(=O)CC[C@@]2(OC(=O)c2ccccc2)[C@@H]1OCC(C)C", "observed": "> 100 µM (inactive)"}
{"compound": "CCC1CN2CCc3cc(OC)c(OC)cc3C2CC1CC1c2cc(OC)c(OC)cc2CCN1C(=O)C1CCCN1C(=O)OCc1ccccc1 (centres undefined)", "observed": "24.3 µM (inactive)"}
{"compound": "COc1ccc(C(c2cc3c(cc2O)OCO3)N2CCOCC2)cc1OC (centres undefined)", "observed": "16.7 µM (inactive)"}
{"compound": "CC1(CCOCc2ccccc2)NC(=O)NC1=O (centres undefined)", "observed": "> 100 µM (inactive)"}
{"compound": "CC(=O)Nc1ccccc1-c1nc2ccccc2nc1-c1ccccc1", "observed": "> 100 µM (inactive)"}
{"compound": "CC(C)c1ccc(C2NC(S)=NC3=C2c2ccccc2C3=O)cc1 (centres undefined)", "observed": "23.8 µM (inactive)"}
{"compound": "CCS(=O)(=O)CCn1cnc2c1c(=O)n(C)c(=O)n2C", "observed": "> 100 µM (inactive)"}
{"compound": "C=C(Cl)C(C)(Cl)CCC(Br)C(C)(C)Cl (centres undefined)", "observed": "51.5 µM (inactive)"}
{"compound": "O=C1NC(=O)C2(CCCCCC2)N1", "observed": "> 100 µM (inactive)"}
{"compound": "Cc1cc(S(=O)(=O)Nc2nc(N)nc(N(C)C)n2)c(S)cc1Cl", "observed": "> 10 µM (inactive)"}
{"compound": "Oc1ncc(N(CCCl)CCCl)c(O)n1", "observed": "42.1 µM (inactive)"}
{"compound": "CC(=O)CC(=O)Nc1ccc2ccccc2c1", "observed": "> 100 µM (inactive)"}
{"compound": "CSC(=N/N=C(\\C)c1ccc(S(=O)(=O)N(C)c2ccccc2)cc1)SC", "observed": "> 66.2 µM (inactive)"}
{"compound": "CC(O)c1ccc(C(O)/C(=N\\NC(=O)c2ccncc2)c2nc3ccc([N+](=O)[O-])cc3nc2O)cc1 (centres undefined)", "observed": "> 100 µM (inactive)"}
{"compound": "Nc1ncnc2c1ncn2CCOC(c1ccccc1)P(=O)(O)O (centres undefined)", "observed": "> 100 µM (inactive)"}
{"compound": "COc1ccc(C(=O)C(c2ccc(OC)cc2)C2(O)C(=O)Nc3c2ccc(Cl)c3C)cc1 (centres undefined)", "observed": "> 100 µM (inactive)"}
{"compound": "O=C(c1ccc(Cl)cc1)N1N=C(c2ccc(Cl)cc2)CC1(O)c1cc(F)c(Cl)cc1Cl (centres undefined)", "observed": "14.6 µM (inactive)"}
{"compound": "COc1ccc(/C=C2\\NC(=S)N(CN3CCOCC3)C2=O)cc1", "observed": "> 100 µM (inactive)"}
{"compound": "O=c1sc2c(s1)-c1sc(=O)sc1SS2", "observed": "> 100 µM (inactive)"}
{"compound": "COc1cc(Cc2nccc3cc(OC)c(OC)cc23)c(/N=N/N(C)C)cc1OC", "observed": "30.6 µM (inactive)"}
{"compound": "COc1cccc2c1CCc1cc3c(N)nc(N)nc3nc1-2", "observed": "5.45 µM (inactive)"}
{"compound": "COc1cc(/N=N/N(C)C)c(C(C)c2c3cc(OC)c(OC)cc3cc[n+]2C)cc1OC (centres undefined)", "observed": "42.3 µM (inactive)"}
{"compound": "Cn1c(=O)ccc2c(=O)c3ccccc3oc21", "observed": "> 100 µM (inactive)"}
{"compound": "Fc1cccc(F)c1C1SCc2nc3ccc(Cl)cc3n21 (centres undefined)", "observed": "> 100 µM (inactive)"}
{"compound": "Cc1cccc2c(N)c3cccc(C(=O)NCC[N+](C)(C)Cc4ccc([N+](=O)[O-])n4C)c3nc12", "observed": "15.6 µM (inactive)"}
